Data provenance is ChEMBL document CHEMBL4184147.

The following molecules are listed with their measured pIC50 values.
tested on: HT-29; assay: Cytotoxicity against human HT-29 cells assessed as decrease in cell viability after 48 hrs by trypan blue exclusion and LDH release; details: HT-29, 48 h
// pIC50 is dimensionless: -log10 of concentration (M)

Would you please look over these solved cases?
O=C(O[C@@H]1Cc2c(O)cc(O)cc2O[C@@H]1c1cc(O)c(O)c(O)c1)c1cc(O)c(O)c(O)c1 [EPIGALOCATECHIN GALLATE] | 4.22
COc1cc(/C=C/c2ccc(O)cc2)cc(OC)c1 [PTEROSTILBENE] | 4.55
COc1cc(/C=C/C(=O)CC(=O)/C=C/c2ccc(O)c(OC)c2)ccc1O [CURCUMIN] | 4.85
Oc1ccc(/C=C/c2cc(O)cc(O)c2)cc1 [RESVERATROL] | 4.57
O=c1c(-c2ccc(O)cc2)coc2cc(O)cc(O)c12 [GENISTEIN] | 4.30

With those in mind, consider the next molecule.
*Q* Any idea what its pIC50 is? The molecule is O=c1c(O)c(-c2ccc(O)c(O)c2)oc2cc(O)cc(O)c12 [QUERCETIN]
*A* 4.74
